Compiled notes: published IC50 values involving UniProt:P21589.

# COMPOUND, MEASURED_METRIC, RECORDED_MEASUREMENT
data = [
    ("N#CC12CC(NC(=O)O[C@@H]3CCN(c4cn[nH]c(=O)c4Cl)C3)(C1)C2", "IC50", "1 to 10000 nM"),
]

Print UniProt:P21589 IC50 for "O=C(NC1CCN(C(=O)c2ccc(F)cc2)CC1)O[C@@H]1CCN(c2cn[nH]c(=O)c2Cl)C1" .
1 to 10000 nM

Give reported IC50 for "O=C(N[C@H]1CC[C@@H](NC(=O)c2ccccc2)CC1)O[C@@H]1CCN(c2cn[nH]c(=O)c2Cl)C1" (UniProt:P21589)
1 to 10000 nM

Quote UniProt:P21589 IC50 for entry C[C@H](O)COc1nc(NC2CCCC2)c2cnn([C@@H]3O[C@H](COC(CO)(CO)P(=O)(O)O)[C@@H](O)[C@H]3O)c2n1 (racemic) .
≤ 100 nM

Provide UniProt:P21589 IC50 reading for CC1(NS(C)(=O)=O)CCC(NC(=O)O[C@@H]2CCN(c3cn[nH]c(=O)c3Cl)C2)CC1 (stereo partly drawn) .
1 to 10000 nM

Under UniProt:P21589: report IC50 of "O=P(O)(O)CP(=O)(O)OC[C@H]1O[C@@H](n2ncc3c(N[C@H]4CCc5ccccc54)cc(Cl)nc32)[C@H](O)[C@@H]1O" .
0.26 nM

Lab note: record IC50 of "O=C(N[C@H]1CC[C@H](NC(=O)c2ccccc2)CC1)O[C@@H]1CCN(c2cn[nH]c(=O)c2Cl)C1" tested on UniProt:P21589.
1 to 10000 nM

Provide the reported IC50 (system: UniProt:P21589) for "CC1(NC(=O)O[C@@H]2CCN(c3cn[nH]c(=O)c3Cl)C2)CCC(F)(F)CC1"
1 to 10000 nM

Find IC50 for "O=C(N[C@H]1CC[C@H](NC(=O)c2cccc(F)c2)CC1)O[C@@H]1CCN(c2cn[nH]c(=O)c2Cl)C1" on UniProt:P21589 and write it down.
1 to 10000 nM

Report IC50 on UniProt:P21589 for this entry: "O=C(NC1CCC(F)(F)CC1)O[C@@H]1CCN(c2cnn(CCCO)c(=O)c2Cl)C1"
1 to 10000 nM

----------
pIC50: −log10 of the molar value.
Here is a set of molecules with reported pIC50 for UniProt:P21589, compiled from the literature.

Solved entries (count: 3):
# CHEM_SMILES, pIC50
records = [
    ("O=P(O)(O)COC[C@H]1O[C@@H](n2ccc3c(NC4CCCC4)nc(Cl)nc32)[C@H](O)[C@@H]1O", "≥ 6.30"),
    ("COC[C@](Cc1nn[nH]n1)(OC[C@H]1O[C@@H](n2ncc3c(NCC(C)C)nc(Cl)nc32)[C@H](O)[C@@H]1O)P(=O)(O)O", "≥ 8.00"),
    ("CCn1cc(S(=O)(=O)N[C@H]2CC[C@H](NC(=O)O[C@@H]3CCN(c4cn[nH]c(=O)c4Cl)C3)CC2)cn1", "5.00 to 9.00"),
]

Attention now turns to another entry.
Indicate the recorded pIC50 value for this molecule: "C[C@H]1CN(c2cn[nH]c(=O)c2Cl)C[C@@H]1NC(=O)NC1CCCC1"
5.00 to 9.00

----------
What follows is literature data on IC50 for CD73 (Homo sapiens (Human)).

Here is how some compounds turned out for IC50.
# COMPOUND, RECORDED_MEASUREMENT
measured = [
    ("NC(=O)OCC(CO)(OC[C@H]1O[C@@H](n2ncc3c(NC4CCCC4)nc(Cl)nc32)[C@H](O)[C@@H]1O)P(=O)(O)O (mixture of isomers)", "≤ 100 nM"),
    ("O=P(O)(O)[C@@](CO)(COCc1nn[nH]n1)OC[C@H]1O[C@@H](c2ccc3c(NCC4CCC4)nc(Cl)nn23)[C@H](O)[C@@H]1O", "≤ 0.5 nM"),
    ("O=C(NC1CCCCC1)OC1CCN(c2cn[nH]c(=O)c2Cl)C1 (stereo not drawn)", "1 to 10000 nM"),
]

Report measured IC50 on CD73 (Homo sapiens (Human)); entry: O=C(CO)NC1CCC(NC(=O)N[C@@H]2CCN(c3cn[nH]c(=O)c3Cl)C2)CC1 (stereo partly drawn)
1 to 10000 nM

Name the value of IC50 reported for "O=C(NCc1ccccc1)N[C@@H]1CCN(c2cn[nH]c(=O)c2Cl)C1" when tested on CD73 (Homo sapiens (Human)).
10000 to 100000 nM

Report measured IC50 on CD73 (Homo sapiens (Human)); entry: O=C(O)c1ccc(C[C@](CO)(OC[C@H]2O[C@@H](n3ncc4c(NC5CCCC5)nc(Cl)nc43)[C@H](O)[C@@H]2O)P(=O)(O)O)cc1 (racemic)
100 to 1000 nM

Give IC50 for "O=C(NC1CCN(C(=O)Cc2ccc(F)c(Cl)c2)CC1)O[C@@H]1CCN(c2cn[nH]c(=O)c2Cl)C1" tested on CD73 (Homo sapiens (Human)).
1 to 10000 nM

Using CD73 (Homo sapiens (Human)) as the test system, report measured IC50 of "COC[C@](C)(OC[C@H]1O[C@@H](n2nnc3c(NC4CCCC4)cc(Cl)nc32)[C@H](O)[C@@H]1O)P(=O)(O)O" .
≤ 100 nM

Recall the reported IC50 of "O=C(NCC1CCCCC1)O[C@@H]1CCN(c2cn[nH]c(=O)c2Cl)C1" when tested on CD73 (Homo sapiens (Human)).
1 to 10000 nM

Under CD73 (Homo sapiens (Human)): report IC50 of "O=P(O)(O)[C@@](CO)(COCc1nn[nH]n1)OC[C@H]1O[C@@H](n2ncc3c(NCC4CCC4)nc(Cl)nc32)[C@H](O)[C@@H]1O" .
≤ 10 nM

----------
pIC50: −log10 of the molar value.
Listed below are compounds with pIC50 for UniProt:P21589, each taken from published literature.

Consider the reported pIC50 for these compounds:
# COMPOUND, pIC50
rows = [
    ("[2H]C([2H])([2H])OC[C@](COCc1nn[nH]n1)(OC[C@H]1O[C@@H](c2ccc3c(NC4CCCC4)nc(Cl)nn23)[C@H](O)[C@@H]1O)P(=O)(O)O", "≥ 9.30"),
    ("O=C(N[C@@H]1CCC[C@H]1O)O[C@@H]1CCN(c2cn[nH]c(=O)c2Cl)C1", "5.00 to 9.00"),
    ("O=C(NC1CCN(C(=O)Nc2cc(F)ccc2F)CC1)O[C@@H]1CCN(c2cn[nH]c(=O)c2Cl)C1", "5.00 to 9.00"),
    ("O=C(N[C@H]1CC[C@H](NC(=O)c2ccc(C(F)(F)F)nc2)CC1)O[C@@H]1CCN(c2cn[nH]c(=O)c2Cl)C1", "5.00 to 9.00"),
]

Provide one value: measured pIC50 of "O=C(Nc1ccc(F)cc1)N[C@H]1CC[C@@H](NC(=O)O[C@@H]2CCN(c3cn[nH]c(=O)c3Cl)C2)CC1"
5.00 to 9.00

Find the measured pIC50 of COCC(C)(OC[C@H]1O[C@@H](n2ncc3c(NC4CCCC4)nc(CO)nc32)[C@H](O)[C@@H]1O)P(=O)(O)O (some centres unmarked) and report it.
≥ 7.00

Identify the reported pIC50 for the following entry. "CN(c1nc(Cl)nc2c1cnn2[C@@H]1O[C@H](COCP(=O)(O)O)[C@@H](O)[C@H]1O)C1CCCC1"
≥ 6.30

Tell me pIC50 reported for "O=P(O)(O)[C@@](CO)(Cc1nn[nH]n1)OC[C@H]1O[C@@H](c2ccc3c(NC4CCCC4)nc(Cl)nn23)[C@H](O)[C@@H]1O"
≥ 9.30

Let me know recorded pIC50 for O=C(NC1CC2CCC1O2)O[C@@H]1CCN(c2cnn(CCO)c(=O)c2Cl)C1 (some centres unmarked) , thanks.
5.00 to 9.00

Provide measured pIC50 value, entry: CCCN1CC(NC(=O)O[C@@H]2CCN(c3cn[nH]c(=O)c3Cl)C2)CC1=O (some centres unmarked)
5.00 to 9.00

Give recorded pIC50. O=C(NC1CCN(C(=O)CO)CC1(F)F)O[C@@H]1CCN(c2cn[nH]c(=O)c2Cl)C1 (some centres unmarked)
5.00 to 9.00

Item "Cc1ncoc1C(=O)N1CCC(NC(=O)O[C@@H]2CCN(c3cn[nH]c(=O)c3Cl)C2)CC1" : provide pIC50
5.00 to 9.00

Give reported pIC50 value for O=C(NC1CCCC1=O)O[C@@H]1CCN(c2cn[nH]c(=O)c2Cl)C1 (some centres unmarked)
5.00 to 9.00
